biological target: Fc-fusion protein receptor ectodomain of BMPR-II; assay: SPR (Biacore T100), receptor ectodomain-Fc on protein G chip, equilibrium binding (KD eq)
Each record here notes measured Kd.

# binder, unit of measure, Kd
data = [
    ("human GDF-5 mutant R438K (ligand) APLATRQGKRPSKNLKARCSRKALHVNFKDMGWDDWIIAPLEYEAFHCEGLCEFPLKSHLEPTNHAVIQTLMNSMDPESTPPTCCVPTRLSPISILFIDSANNVVYKQYEDMVVESCGCR", "nM", 32),
    ("recombinant human GDF-5 mutant R399E (ligand) APLATRQGKRPSKNLKAECSRKALHVNFKDMGWDDWIIAPLEYEAFHCEGLCEFPLRSHLEPTNHAVIQTLMNSMDPESTPPTCCVPTRLSPISILFIDSANNVVYKQYEDMVVESCGCR", "nM", 32),
    ("recombinant human GDF-5 mutant R399M (ligand) APLATRQGKRPSKNLKAMCSRKALHVNFKDMGWDDWIIAPLEYEAFHCEGLCEFPLRSHLEPTNHAVIQTLMNSMDPESTPPTCCVPTRLSPISILFIDSANNVVYKQYEDMVVESCGCR", "nM", 32),
    ("recombinant human GDF-5 wild type (ligand) APLATRQGKRPSKNLKARCSRKALHVNFKDMGWDDWIIAPLEYEAFHCEGLCEFPLRSHLEPTNHAVIQTLMNSMDPESTPPTACVPTRLSPISILFIDSANNVVYKQYEDMVVESCGCR", "nM", 32),
    ("human GDF-5 mutant S439K (ligand) APLATRQGKRPSKNLKARCSRKALHVNFKDMGWDDWIIAPLEYEAFHCEGLCEFPLRKHLEPTNHAVIQTLMNSMDPESTPPTCCVPTRLSPISILFIDSANNVVYKQYEDMVVESCGCR", "nM", 10),
]
